# Tested on: HL-60
# procedure text: Cytotoxicity was assessed using vincristine-resistant human leukemic cell line HL60/Vinc
# Assay type: functional, cell-based
assay readout: IC50

A selection of reference data follows.
Which IC50 reading was recorded for the compound COc1cc2c(cc1OC)C(c1cc(OC)c(OC)c(OC)c1)[C@H]1COC[C@@H]1C2 (stereo partly specified) ? 0.314 µg/mL

Which IC50 reading was recorded for the compound COc1ccc([C@H]2c3cc(OC)c(OC)cc3C[C@H]3COC[C@@H]32)cc1OC ? 14.7 µg/mL

Which IC50 reading was recorded for the compound COc1cc([C@@H]2c3cc4c(cc3C[C@H]3COC[C@@H]32)OCO4)cc(OC)c1OC ? 0.015 µg/mL

Which IC50 reading was recorded for the compound COc1cc([C@H]2c3cc4c(cc3C[C@H]3COC[C@@H]32)OCO4)cc(OC)c1OC ? 3.06 µg/mL

Which IC50 reading was recorded for the compound COc1ccc([C@@H]2c3cc(OC)c(OC)cc3C[C@H]3COC[C@@H]32)cc1OC ? 36.1 µg/mL

Let us examine a further case.
Which IC50 reading was recorded for the compound COc1cc([C@@H]2c3cc4c(cc3[C@@H](O[C@@H]3O[C@@H]5CO[C@@H](C)O[C@H]5[C@H](O)[C@H]3O)[C@H]3COC(=O)[C@H]23)OCO4)cc(OC)c1O [ETOPOSIDE] ? 18.1 µg/mL
